Where these numbers come from: ChEMBL document CHEMBL1201862

# key: entry, value: GI50
Test system: M19-MEL
EXPERIMENTAL PROTOCOL: NCI tumour cell line growth inhibition, 48 h
Calls of active or inactive are those of the source. Rule as the data show it: active = GI50 up to about 1.1 µM and inactive = higher.
RECORDED METRIC: GI50

{"columns": ["COMPOUND", "VALUE"],
 "data": [
  ["NC(=O)c1cc(N2CC2)c([N+](=O)[O-])cc1[N+](=O)[O-]", "> 100 µM (inactive)"],
  ["O=C(/C(=C\\c1ccccc1)CN1CCOCC1)c1ccc(Br)cc1", "1.73 µM (inactive)"],
  ["COc1ccc(NC(=O)COC(=O)c2cccc3c(=O)c4ccccc4[nH]c23)cc1", "19.2 µM (inactive)"],
  ["CN(C)C(c1ccccc1)C(O)c1ccccc1 (stereo not given)", "> 100 µM (inactive)"],
  ["Cc1cc(Cl)ccc1NC(=O)CCCC(=O)C1CCC/C1=N\\NC(=O)CC#N (stereo not given)", "> 100 µM (inactive)"]
]}
